# System: HCC-2998 colon
# protocol.text: NCI tumour cell line growth inhibition, 48 h
Listed here: items and their measured GI50.
assay.endpoint: GI50

1. CCn1c2ccccc2c2cc(NC(=O)Nc3ccc([N+](=O)[O-])cc3C)ccc21 ... 4250 nM
2. COc1cc(F)ccc1-c1ncnc(Nc2cccc(CS(C)(=N)=O)c2)n1 (stereo unspecified) ... 2540 nM
3. O=c1cc(-c2cccc3ccccc23)[nH]c2ncccc12 ... 31.3 nM
4. CCCN1C(=O)N(CCC)C2C1NC(=S)N2/N=C/C=C/c1ccccc1OC (stereo unspecified) ... 2360 nM
5. Nc1nc(/C=C\c2ccc([N+](=O)[O-])s2)nc(N2CCCC2)n1 ... 4860 nM
6. O=C(Cn1c[n+](CC(=O)c2ccc(-c3ccccc3)cc2)c2ccccc21)Nc1cccc2cccnc12 ... 1400 nM
7. COc1cc2c(cc1OCCCNC(=O)c1cccc3c(=O)c4ccccc4[nH]c13)N=C[C@@H]1CCCN1C2=O ... < 10.3 nM
8. COc1ccc(-c2nn(-c3ccc(NC(=O)c4ccc(Cl)c(Cl)c4)cc3)cc2-c2ccncc2)cc1Cl ... 1850 nM
9. [Cl][Hg][c]1cc[c]([Hg][Cl])o1 ... 17000 nM
10. COc1cccc2c1C(=O)c1c(O)c3c(c(O)c1C2=O)C[C@](O)(C(=O)CO)C[C@H]3O[C@@H]1C[C@@H](NC(=O)CCCCCN(C)C2(c3ccc(F)cc3)CC3CCC2C3)[C@H](O)[C@@H](C)O1 (stereo partly specified) ... 1030 nM
11. COc1cc(Cn2c(-c3ccccc3)c(Cl)c3c2-c2oncc2CC3)cc(OC)c1 ... 9970 nM

* * *

Overview of recorded TGI for various compounds
# System: IGROV1 ovarian
# protocol.text: NCI tumour cell line growth inhibition, 48 h
assay.endpoint: TGI

1. CN(CC(=O)O)c1ncc2c(n1)CCCC2 ... > 100 µM
2. CO/N=C(\COc1ccc2c(c1)oc(=O)c1cc(OC)ccc12)c1ccc(OC)cc1 ... > 100 µM
3. COc1cc2c(c(OC)c1OC)-c1ccc(SC)c(=O)cc1C(NC=O)CC2 (stereo not drawn) ... > 85.5 µM

* * *

Here the recorded TGI is given for each entry.
# Test system: UO-31 renal
# protocol.text: NCI tumour cell line growth inhibition, 48 h
assay.endpoint: TGI (µM)

1. CC[C@H]1[C@@H]2C=C[C@@H]3[C@H]4C/C=C\C(=O)NCCC[C@@H]5NC(=O)/C(=C(O)/C=C/[C@@H]4C[C@@H]3[C@H]2C[C@H]1C)C5=O ... 1.91
2. O=c1c(/C=C/c2c(O)ccc3ccccc23)nnc2sc(-c3cccc(Br)c3)nn12 ... 69.6
3. O=C(Nc1nc(C23CC4CC(CC(C4)C2)C3)cs1)c1cc2ccc(O)cc2oc1=O ... 31.2

* * *

# Tested on: RPMI-8226 leukemia
# protocol.text: NCI tumour cell line growth inhibition, 48 h
# TGI listing for each entry below
assay.endpoint: TGI

1. Cc1cc2oc(=N)c(C#N)c(C)c2cc1C ... > 100 µM
2. O=C1Nc2ccccc2/C1=N\[O-].O=C1Nc2ccccc2/C1=N\[O-].[Cu+2] ... > 100 µM
3. OCC1OC(c2nc(C3=NCCCN3)cs2)C(O)C1O (centres undefined) ... > 100 µM
4. CCCCCCc1cc2cc(C(=O)Nc3ccccc3)c(=N)oc2cc1O ... > 100 µM
